// provenance: FireProtDB (doi:10.1021/tx3002115)

B1: DNA polymerase IV, Q97W02 (parent)
chain: MIVLFVDFDYFYAQVEEVLNPSLKGKPVVVCVFSGRFEDSGAVATANYEARKFGVKAGIPIVEAKKILPNAVYLPMRKEVYQQVSSRIMNLLREYSEKIEIASIDEAYLDISDKVRDYREAYNLGLEIKNKILEKEKITVTVGISKNKVFAKIAADMAKPNGIKVIDDEEVKRLIRELDIADVPGIGNITAEKLKKLGINKLVDTLSIEFDKLKGMIGEAKAKYLISLARDEYNEPIRTRVRKSIGRIVTMKRNSRNLEEIKPYLFRAIEESYYKLDKRIPKAIHVVAVTEDLDIVSRGRTFPHGISKETAYSESVKLLQKILEEDERKIRRIGVRFSKFIEAIGLDKFFDT

# Variants of: B1
# measurementContext: Saccharolobus solfataricus (strain ATCC 35092 / DSM 1617 / JCM 11322 / P2); pH 7.5; Thermal; CD; Na3PO4; NaCl MgCl2 50000 5000; structure 2RDI; whole UniProt chain shown
measurementKind: unfolding enthalpy (calorimetric) (kcal/mol)

1. K148A E235A R240A ... 172
2. E100A E235A R240A ... 193
3. E100A K148A E235A R240A ... 163
4. E235A R240A ... 125
5. E100A K148A ... 135
6. R240A ... 93
